Biological target: hMC4R (Homo sapiens)
Sequence (P32245 whole entry): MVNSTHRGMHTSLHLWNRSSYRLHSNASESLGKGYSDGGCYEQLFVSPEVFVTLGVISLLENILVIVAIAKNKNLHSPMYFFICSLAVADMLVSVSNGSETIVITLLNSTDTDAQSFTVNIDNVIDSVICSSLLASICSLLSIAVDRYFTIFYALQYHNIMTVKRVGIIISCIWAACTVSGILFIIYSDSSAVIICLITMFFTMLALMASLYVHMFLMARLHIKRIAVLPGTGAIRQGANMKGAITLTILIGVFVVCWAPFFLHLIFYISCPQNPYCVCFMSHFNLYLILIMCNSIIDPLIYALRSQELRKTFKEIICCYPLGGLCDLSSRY
PROPERTY NAME: IC50
Quick note: unit goes after the number.

Item under review: CC[C@H](NC(C)=O)c1cc(Cl)ccc1C1CCN(C(=O)[C@@H]2CN(C(C)(C)C)C[C@H]2c2ccc(F)cc2F)CC1 . Reported IC50? 44 nM

----------
Target: hMC2R (Homo sapiens)
Sequence (Q01718 whole entry): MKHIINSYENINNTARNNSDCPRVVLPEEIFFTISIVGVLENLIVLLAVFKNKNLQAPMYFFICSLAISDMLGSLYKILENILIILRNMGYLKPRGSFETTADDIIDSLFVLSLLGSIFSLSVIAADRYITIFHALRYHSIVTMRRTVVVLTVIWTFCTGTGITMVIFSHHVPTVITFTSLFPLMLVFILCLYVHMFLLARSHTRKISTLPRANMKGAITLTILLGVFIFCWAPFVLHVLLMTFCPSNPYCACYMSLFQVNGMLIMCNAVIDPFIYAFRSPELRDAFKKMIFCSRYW
Sequence (Q8TCY5 whole entry partner): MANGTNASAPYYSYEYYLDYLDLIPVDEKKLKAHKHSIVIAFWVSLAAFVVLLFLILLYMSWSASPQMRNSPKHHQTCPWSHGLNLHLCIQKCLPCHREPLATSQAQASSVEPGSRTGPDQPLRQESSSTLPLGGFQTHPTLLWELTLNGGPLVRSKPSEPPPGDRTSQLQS
Test: cAMP functional assay (agonist)
pEC50: −log10 of the molar value.
PROPERTY NAME: pEC50

Need pEC50 of CC[C@H](NC(C)=O)c1cc(Cl)ccc1C1CCN(C(=O)[C@@H]2CN(C(C)(C)C)C[C@H]2c2ccc(F)cc2F)CC1 , thanks. < 5.00

The values you see were collected from patent US20080200376A1.
